assay: Pharmacokinetic study of rivaroxaban in rats, alone and with ribociclib (UPLC-MS/MS plasma levels); format: in vivo, Sprague-Dawley rats; conditions: Sprague-Dawley, rat, plasma, po, 1 mg/kg, RIVA 1 mg/kg + RIBO 60 mg/kg for 8 days
Quantity name: half-life (h)
Entry rule: numbers only, all in h.

Challenge: For the molecule `O=C(NC[C@H]1CN(c2ccc(N3CCOCC3=O)cc2)C(=O)O1)c1ccc(Cl)s1` , report half-life.
Response given: 3.34

###

assay: Pharmacokinetic study of rivaroxaban in rats, alone and with ribociclib (UPLC-MS/MS plasma levels); format: in vivo, Sprague-Dawley rats; details: Sprague-Dawley, rat, plasma, po, 2 mg/kg, oral RIVA 2 mg/kg alone
Quantity name: half-life

Challenge: For the molecule `O=C(NC[C@H]1CN(c2ccc(N3CCOCC3=O)cc2)C(=O)O1)c1ccc(Cl)s1` , report half-life.
Response given: 5.01 h
